Origin of values: patent US8501770B2

target: Full-length inactive AKT1 (Homo sapiens, UniProt P31749); assay: Inactive Akt Alpha Screen Assay; format: biochemical; settings: values not marked with "*"; read-out: Akt1 IC50, (AlphaScreen)
Sequence (P31749 whole entry): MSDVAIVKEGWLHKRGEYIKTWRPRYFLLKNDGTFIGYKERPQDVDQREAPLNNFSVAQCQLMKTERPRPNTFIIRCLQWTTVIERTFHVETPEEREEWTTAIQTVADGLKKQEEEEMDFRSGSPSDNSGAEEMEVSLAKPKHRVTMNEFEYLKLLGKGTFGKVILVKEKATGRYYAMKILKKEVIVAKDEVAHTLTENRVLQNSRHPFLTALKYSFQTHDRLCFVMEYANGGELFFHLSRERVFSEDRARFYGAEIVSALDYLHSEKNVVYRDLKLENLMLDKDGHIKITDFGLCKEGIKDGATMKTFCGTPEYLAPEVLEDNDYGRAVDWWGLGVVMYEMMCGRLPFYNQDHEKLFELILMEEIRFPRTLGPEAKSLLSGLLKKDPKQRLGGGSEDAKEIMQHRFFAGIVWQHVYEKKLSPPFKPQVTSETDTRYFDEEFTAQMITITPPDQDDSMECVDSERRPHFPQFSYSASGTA
endpoint label: pIC50
Just so you know, pIC50 here is -log10 of the concentration in molar units; reply with that number alone.

IN: Answer with reported pIC50 of CN(C)Cc1cccc(-c2ccc3nc(-c4cccnc4N)n(-c4ccc(C5(N)CCC5)cc4)c3n2)c1 [Example 398]
OUT: 8.19

IN: Answer with reported pIC50 of COC(=O)c1ccc(-c2ccc3nc(-c4cccnc4N)n(-c4ccc(CNC(=O)c5cccc(F)c5)cc4)c3n2)cc1 [Example 336]
OUT: 6.49

IN: Answer with reported pIC50 of Cc1ccc2nc(-c3cccnc3N)n(-c3ccc(CC(=O)c4ccccc4)cc3)c2n1 [Example 349]
OUT: 6.74

IN: Answer with reported pIC50 of CC(=O)Nc1cccc(-c2cnc3c(c2)nc(-c2cccnc2N)n3-c2ccc(C3(N)CCC3)cc2)c1 [Example 359]
OUT: 7.24

* * *

biological target: Full-length inactive AKT1 (Homo sapiens, UniProt P31749); assay: Inactive Akt Alpha Screen Assay; assay type: biochemical; settings: values not marked with "*": AlphaScreen assay; read-out: Akt1 IC50, (AlphaScreen)
Field: log10 of IC50. Provide a value for each of the molecules that follow.
Each number you see is log10 of IC50, and the unit inside the log is nM.

IN: Answer with reported log10 of IC50 of Nc1ncccc1-c1nc2cc(-c3ccncc3)cnc2n1-c1ccc(CNC(=O)c2ccccc2)cc1
OUT: 2.20

IN: Answer with reported log10 of IC50 of Nc1ncccc1-c1nc2cc(Br)cnc2n1-c1ccc(CNS(=O)(=O)c2ccccc2)cc1
OUT: 2.62

IN: Answer with reported log10 of IC50 of Nc1ncccc1-c1nc2cc(-c3ccc4cc[nH]c4c3)cnc2n1-c1ccc(CNC(=O)c2ccccc2)cc1
OUT: 2.56

IN: Answer with reported log10 of IC50 of Nc1ncccc1-c1nc2cc(F)cnc2n1-c1ccc(CNC(=O)c2ccccc2)cc1
OUT: 2.03

IN: Answer with reported log10 of IC50 of CCOc1cccc(-c2cnc3c(c2)nc(-c2cccnc2N)n3-c2ccc(CNC(=O)c3ccccc3)cc2)c1
OUT: 3.26

IN: Answer with reported log10 of IC50 of Cc1ccccc1C(=O)NCc1ccc(-n2c(-c3cccnc3N)nc3cccnc32)cc1
OUT: 2.28

IN: Answer with reported log10 of IC50 of COc1cccc(S(=O)(=O)NCc2ccc(-n3c(-c4cccnc4N)nc4cc(Br)cnc43)cc2)c1
OUT: 2.41

IN: Answer with reported log10 of IC50 of Nc1ncccc1-c1nc2cccnc2n1-c1ccc(CNC(=O)c2cccnc2)cc1
OUT: 2.32

* * *

Field: pIC50. Provide a value for each of the molecules that follow.
tested on: Zr75-1; test: MTS Assay, cell proliferation, Zr75-1; assay type: cell-based; conditions: Homo sapiens, ZR-75-1, read-out: Average of [CELL], IC50, MTS (72 hours; 10 Percent; FBS) Zr75-1
Just so you know, pIC50 here is -log10 of the concentration in molar units; reply with that number alone.

IN: Answer with reported pIC50 of CC(=O)Nc1cccc(-c2ccc3nc(-c4cccnc4N)n(-c4ccc(CNS(=O)(=O)c5ccccc5)cc4)c3n2)c1
OUT: 5.44

IN: Answer with reported pIC50 of Nc1ncccc1-c1nc2ccc(-c3ccoc3)nc2n1-c1ccc(CNC(=O)c2cccc(F)c2)cc1
OUT: 5.04

IN: Answer with reported pIC50 of Nc1ncccc1-c1nc2ccc(-c3cn[nH]c3)nc2n1-c1ccc(CNC(=O)c2cccc(F)c2)cc1
OUT: 5.09

IN: Answer with reported pIC50 of Nc1ncccc1-c1nc2ccc(-c3cccc(CO)c3)nc2n1-c1ccc(CNC(=O)c2cccc(F)c2)cc1
OUT: 5.37

IN: Answer with reported pIC50 of Nc1ncccc1-c1nc2ccc(-c3ccccc3)nc2n1-c1ccc(C2(N)CCC2)cc1
OUT: 5.38
